Quick reference for MIC Enterococcus faecium ATCC 700221 among some compounds
test system: Enterococcus faecium ATCC 700221; conditions: ATCC 700221, 24 h
Where a SMILES comes first, the peptide text is derived from it. Bridges are numbered along the chain shown (N, C = ends). Roman numbers before positions name the chains, in order. Side-chain parts run from the residue outwards. The star is where a group is joined. Myristoyl = CCCCCCCCCCCCCC(=O)*; Lauroyl = CCCCCCCCCCCC(=O)*; Octanoyl = CCCCCCCC(=O)*

Look up MIC Enterococcus faecium ATCC 700221 with Enterococcus faecium ATCC 700221 for this compound: CCCCCCCC(=O)N[C@@H](CCCNC(=N)N)C(=O)N[C@@H](CCCNC(=N)N)C(=O)N[C@@H](CSSC[C@H](NC(=O)[C@H](CCCNC(=N)N)NC(=O)[C@H](CCCNC(=N)N)NC(=O)CCCCCCC)C(N)=O)C(N)=O [Compound C1] (I: Octanoyl-Arg-Arg-Cys-NH2 / II: Octanoyl-Arg-Arg-Cys-NH2; disulfide I:3-II:3)
32 µg/mL

Look up MIC Enterococcus faecium ATCC 700221 with Enterococcus faecium ATCC 700221 for this compound: CCCCCCCCCCCC(=O)N[C@@H](CCCNC(=N)N)C(=O)N[C@@H](CCCNC(=N)N)C(=O)N[C@@H](CSSC[C@H](NC(=O)[C@H](CCCNC(=N)N)NC(=O)[C@H](CCCNC(=N)N)NC(=O)CCCCCCCCCCC)C(N)=O)C(N)=O [Compound C3] (I: Lauroyl-Arg-Arg-Cys-NH2 / II: Lauroyl-Arg-Arg-Cys-NH2; disulfide I:3-II:3)
2 µg/mL

Look up MIC Enterococcus faecium ATCC 700221 with Enterococcus faecium ATCC 700221 for this compound: CCCCCCCCCCCCCC(=O)N[C@@H](CCCNC(=N)N)C(=O)N[C@@H](CCCNC(=N)N)C(=O)NCCCC[C@H](NC(=O)[C@H](CCCNC(=N)N)NC(=O)[C@H](CCCNC(=N)N)NC(=O)CCCCCCCCCCCCC)C(N)=O [Compound B4] (Myristoyl-Arg-Arg-Lys([Arg-Arg-Myristoyl])-NH2)
8 µg/mL

###

Quick reference for MBEC Staphylococcus aureus ATCC 33591 among some molecules
test system: Staphylococcus aureus ATCC 33591; format: cell-based; conditions: ATCC 33591, 24 h
Where a SMILES comes first, the peptide text is derived from it. Bridges are numbered along the chain shown (N, C = ends). Roman numbers before positions name the chains, in order. Side-chain parts run from the residue outwards. The star is where a group is joined. Myristoyl = CCCCCCCCCCCCCC(=O)*; Lauroyl = CCCCCCCCCCCC(=O)*; Decanoyl = CCCCCCCCCC(=O)*
Use µg/mL as the unit, but write only the number.

Examples with answers:
{"molecule": "CCCCCCCCCCCCCC(=O)N[C@@H](CCCNC(=N)N)C(=O)N[C@@H](CCCNC(=N)N)C(N)=O [Compound A4, C14-RR-NH2] (Myristoyl-Arg-Arg-NH2)", "units text": "µg/mL", "MBEC Staphylococcus aureus ATCC 33591": 8}
{"molecule": "CCCCCCCCCC(=O)N[C@@H](CCCNC(=N)N)C(=O)N[C@@H](CCCNC(=N)N)C(=O)NCCCC[C@H](NC(=O)[C@H](CCCNC(=N)N)NC(=O)[C@H](CCCNC(=N)N)NC(=O)CCCCCCCCC)C(N)=O [Compound B2] (Decanoyl-Arg-Arg-Lys([Arg-Arg-Decanoyl])-NH2)", "units text": "µg/mL", "MBEC Staphylococcus aureus ATCC 33591": 4}
{"molecule": "CCCCCCCCCCCC(=O)N[C@@H](CCCNC(=N)N)C(=O)N[C@@H](CCCNC(=N)N)C(=O)NCCCC[C@H](NC(=O)[C@H](CCCNC(=N)N)NC(=O)[C@H](CCCNC(=N)N)NC(=O)CCCCCCCCCCC)C(N)=O [Compound B3] (Lauroyl-Arg-Arg-Lys([Arg-Arg-Lauroyl])-NH2)", "units text": "µg/mL", "MBEC Staphylococcus aureus ATCC 33591": 16}
{"molecule": "CCCCCCCCCC(=O)N[C@@H](CCCNC(=N)N)C(=O)N[C@@H](CCCNC(=N)N)C(N)=O [Compound A2, C10-RR-NH2] (Decanoyl-Arg-Arg-NH2)", "units text": "µg/mL", "MBEC Staphylococcus aureus ATCC 33591": 512}
{"molecule": "CCCCCCCCCC(=O)N[C@@H](CCCNC(=N)N)C(=O)N[C@@H](CCCNC(=N)N)C(=O)N[C@@H](CSSC[C@H](NC(=O)[C@H](CCCNC(=N)N)NC(=O)[C@H](CCCNC(=N)N)NC(=O)CCCCCCCCC)C(N)=O)C(N)=O [Compound C2] (I: Decanoyl-Arg-Arg-Cys-NH2 / II: Decanoyl-Arg-Arg-Cys-NH2; disulfide I:3-II:3)", "units text": "µg/mL", "MBEC Staphylococcus aureus ATCC 33591": 8}

# query: MBEC Staphylococcus aureus ATCC 33591 of entry CCCCCCCCCCCC(=O)N[C@@H](CCCNC(=N)N)C(=O)N[C@@H](CCCNC(=N)N)C(=O)N[C@@H](CSSC[C@H](NC(=O)[C@H](CCCNC(=N)N)NC(=O)[C@H](CCCNC(=N)N)NC(=O)CCCCCCCCCCC)C(N)=O)C(N)=O [Compound C3] (I: Lauroyl-Arg-Arg-Cys-NH2 / II: Lauroyl-Arg-Arg-Cys-NH2; disulfide I:3-II:3)
32
